test system: SK-MEL-2; experiment: NCI tumour cell line growth inhibition, 48 h
Active and inactive are the calls of the source. Rule as the data show it: active = GI50 up to about 1.1 µM and inactive = higher.
propertyMeasured: GI50

Check out these entries, answers already filled in.
O=S(=O)(c1ccccc1)n1cnc(CCc2ccccc2)n1 : > 100 µM (inactive)
CCc1cc(O)c(Cl)c(C)c1Cl : 43.3 µM (inactive)

In: What value of GI50 has been recorded for this entry: Cc1nn2c(=O)c([N+](=O)[O-])c(/C=C/c3ccccc3)nc2s1
Out: 3.1 µM (inactive)

* * *

tested on: NCI/ADR-RES; experiment: NCI tumour cell line growth inhibition, 48 h
Activity calls are given as the source filed them. Rule as the data show it: active = GI50 up to about 1.1 µM and inactive = higher.
Field 'call' accepts True (active), False (inactive)

CC1(C)c2ccccc2C(O)C12CCC(=O)CC2 (stereo not given) : False
CC1=Nc2c(O)nc(S)nc2NC(c2c(Cl)cccc2Cl)C1 (stereo not given) : True
COc1ccc(CCN2COc3ccc4ccc(=O)oc4c3C2)cc1OC : False
CC(C)(C)OC(=O)N1C(OP(=O)(Oc2ccccc2)Oc2ccccc2)=COc2cccnc21 : False

In: Hello, I am checking results. What call was entered for CC(C)CC(NC=O)C(=O)NC(Cc1ccccc1)NC(=O)CNC(=O)C(C)NC(=O)C(N)Cc1ccc(O)cc1 (stereo not given) ?
Out: False
